System: Clostridium sporogenes DSM 1664
Assay: growth (OD595) fold change vs plate DMSO controls (fold change (ratio)); higher = more growth
Details: incubation time: 27 h, anaerobic, 37 °C
Counter-ions that a name gives are not always drawn.
Readout Name: growth
Please state the value as a number alone, without comment.

Worked cases, growth given:
Simply: CC1(C)S[C@@H]2[C@H](NC(=O)[C@H](NC(=O)N3CCNC3=O)c3ccccc3)C(=O)N2[C@H]1C(=O)O [Azlocillin sodium salt] (20 µM) , Clostridium sporogenes DSM 1664, growth = 0

Simply: CCN1C(=O)NC(c2ccccc2)C1=O (configuration not stated) [Ethotoin] (20 µM) , Clostridium sporogenes DSM 1664, growth = 0.983

Simply: Clc1ccc(COC(Cn2ccnc2)c2ccc(Cl)cc2Cl)cc1 (configuration not stated) [Econazole nitrate] (20 µM) , Clostridium sporogenes DSM 1664, growth = 1.35

Simply: CC(=O)[C@H]1CC[C@H]2[C@@H]3CC=C4C[C@@H](O)CC[C@]4(C)[C@H]3CC[C@]12C [Pregnenolone] (20 µM) , Clostridium sporogenes DSM 1664, growth = 1.1

Simply: CCc1cccc2c3c([nH]c12)C(CC)(CC(=O)O)OCC3 (configuration not stated) [Etodolac] (20 µM) , Clostridium sporogenes DSM 1664, growth = 1.08

Next:
Simply: OC[C@@H](O)[C@@H](O[C@@H]1O[C@H](CO)[C@H](O)[C@H](O)[C@H]1O)[C@H](O)[C@@H](O)CO [Lactitol] (50 µM) , Clostridium sporogenes DSM 1664, growth = 1.13

Simply: O=C1C(=O)c2ccccc2C(O)=C1C1CCC(c2ccc(Cl)cc2)CC1 (configuration not stated) [Atovaquone] (20 µM) , Clostridium sporogenes DSM 1664, growth = 1.24
